List of Vd values.
experiment: In vivo pharmacokinetic analysis in rat, iv; design: species or system male Wistar Han rat; details: male, Wistar Han, rat, whole blood; iv 1 mg/kg; read-out: iv PK rat: Vd
Report only the number, with the unit L/kg understood.

> print(dat)
                                   compound  quantity.unit  result
1  CC1CCN(C(=O)C[C@H]2C[C@@H](Nc3c(C#N)cnc4[nH]ccc34)C2)CC1 [Compound B]           L/kg     0.8

Data point: CC1(C)CCN(C(=O)C[C@H]2C[C@@H](Nc3c(C#N)cnc4[nH]ccc34)C2)CC1 [Compound A] ; Vd = 1.4

---

molecular target: CYP3A4 (Homo sapiens); construct: assessed in Human pooled liver microsomes of mixed gender; from tissue; host or cells: human pooled liver microsomes; experiment: CYP3A inhibition in human liver microsomes; type: in vitro ADME; conditions: testosterone, read-out: IC50 CYP3A4 testo.
Sequence (P08684 2-503): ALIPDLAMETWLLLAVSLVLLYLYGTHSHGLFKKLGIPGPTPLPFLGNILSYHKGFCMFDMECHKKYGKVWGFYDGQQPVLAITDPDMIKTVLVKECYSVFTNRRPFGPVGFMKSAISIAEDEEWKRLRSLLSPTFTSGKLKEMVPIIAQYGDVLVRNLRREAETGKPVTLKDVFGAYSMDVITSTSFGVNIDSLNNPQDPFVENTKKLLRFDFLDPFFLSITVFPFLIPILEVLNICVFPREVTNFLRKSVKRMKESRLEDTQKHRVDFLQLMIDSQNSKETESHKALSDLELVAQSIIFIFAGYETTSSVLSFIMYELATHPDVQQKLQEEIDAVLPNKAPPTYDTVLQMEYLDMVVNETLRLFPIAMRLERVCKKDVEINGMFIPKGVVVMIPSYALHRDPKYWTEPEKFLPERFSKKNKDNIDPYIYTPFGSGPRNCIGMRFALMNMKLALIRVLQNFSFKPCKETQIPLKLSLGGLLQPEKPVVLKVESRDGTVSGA
recorded.metric: pIC50
// pIC50 is dimensionless: -log10 of concentration (M)

> print(dat)
                                   compound          target.entity  recorded.metric  result
1  CC1CCN(C(=O)C[C@H]2C[C@@H](Nc3c(C#N)cnc4[nH]ccc34)C2)CC1 [Compound B]  CYP3A4 (Homo sapiens)            pIC50    5.25

We next turn to a different compound, shown below.
Data point: CC1(C)CCN(C(=O)C[C@H]2C[C@@H](Nc3c(C#N)cnc4[nH]ccc34)C2)CC1 [Compound A] ; pIC50 = 5.82

---

assay: Chrom logD pH 7.4; type: physicochemical
recorded.metric: chromatographic logD
Returns: the value as a bare number; no unit string appended.

> print(dat)
                           smiles.structure       recorded.metric  result
1  CC1CCN(C(=O)C[C@H]2C[C@@H](Nc3c(C#N)cnc4[nH]ccc34)C2)CC1  chromatographic logD     2.2

Data point: `CC1(C)CCN(C(=O)C[C@H]2C[C@@H](Nc3c(C#N)cnc4[nH]ccc34)C2)CC1` ; chromatographic logD = 2.7

---

assay: In vivo pharmacokinetic analysis in rat, iv; design: species or system male Wistar Han rat; conditions: male, Wistar Han, rat, whole blood; iv 1 mg/kg, blood; read-out: iv PK rat: Cl
recorded.metric: clearance (mL/min/kg)
Report only the number, with the unit mL/min/kg understood.

> print(dat)
                           smiles.structure  result
1  CC1(C)CCN(C(=O)C[C@H]2C[C@@H](Nc3c(C#N)cnc4[nH]ccc34)C2)CC1      36

We next turn to a different compound, shown below.
Data point: `CC1CCN(C(=O)C[C@H]2C[C@@H](Nc3c(C#N)cnc4[nH]ccc34)C2)CC1` ; clearance = 36

---

assay: In vivo pharmacokinetic analysis in rat, iv; design: species or system male Wistar Han rat; conditions: male, Wistar Han, rat, whole blood; iv 1 mg/kg; read-out: iv PK rat: t½ (converted)
List of half-life values.
Report only the number, with the unit min understood.

> print(dat)
                           smiles.structure  result
1  CC1CCN(C(=O)C[C@H]2C[C@@H](Nc3c(C#N)cnc4[nH]ccc34)C2)CC1    15.6

We next turn to a different compound, shown below.
Data point: `CC1(C)CCN(C(=O)C[C@H]2C[C@@H](Nc3c(C#N)cnc4[nH]ccc34)C2)CC1` ; half-life = 32.4
